# method summary: Oral bioavailability in Balb/c mouse at 10 mg/kg, administered as single dose by LC-MS/MS analysis
# Format: ADME, organism-based
# condition set: in vivo
readout name: bioavailability (%)
Give your result in % as a bare value.

Answer with the recorded bioavailability of `C[C@H]1CN(C2CCN(c3nc(N)n[nH]3)CC2)[C@@H](Cc2ccc(Cl)cc2)CO1` only.
77.4

----------
# method summary: AUC (0 to 24 hrs) in Balb/c mouse at 3 mg/kg, iv administered as single bolus dose by LC-MS/MS analysis
# Format: ADME, organism-based
# Design: time < 24 hr, route intravenous, dose 3 mg/kg
# condition set: in vivo
readout name: AUC(0-t) at 24 h (ng·h/mL)
Give your result in ng·h/mL as a bare value.

Answer with the recorded AUC(0-t) at 24 h of `C[C@H]1CN(C2CCN(c3nc(N)n[nH]3)CC2)[C@@H](Cc2ccc(Cl)cc2)CO1` only.
8600

All figures here come from ChEMBL document CHEMBL4699582.
